Parameter: % inhibition apPOL 180' 2.5. Scope: all listed entries.
- Test target: UniProt:Q8ILY1
- Sequence (Q8ILY1 entry or part of it): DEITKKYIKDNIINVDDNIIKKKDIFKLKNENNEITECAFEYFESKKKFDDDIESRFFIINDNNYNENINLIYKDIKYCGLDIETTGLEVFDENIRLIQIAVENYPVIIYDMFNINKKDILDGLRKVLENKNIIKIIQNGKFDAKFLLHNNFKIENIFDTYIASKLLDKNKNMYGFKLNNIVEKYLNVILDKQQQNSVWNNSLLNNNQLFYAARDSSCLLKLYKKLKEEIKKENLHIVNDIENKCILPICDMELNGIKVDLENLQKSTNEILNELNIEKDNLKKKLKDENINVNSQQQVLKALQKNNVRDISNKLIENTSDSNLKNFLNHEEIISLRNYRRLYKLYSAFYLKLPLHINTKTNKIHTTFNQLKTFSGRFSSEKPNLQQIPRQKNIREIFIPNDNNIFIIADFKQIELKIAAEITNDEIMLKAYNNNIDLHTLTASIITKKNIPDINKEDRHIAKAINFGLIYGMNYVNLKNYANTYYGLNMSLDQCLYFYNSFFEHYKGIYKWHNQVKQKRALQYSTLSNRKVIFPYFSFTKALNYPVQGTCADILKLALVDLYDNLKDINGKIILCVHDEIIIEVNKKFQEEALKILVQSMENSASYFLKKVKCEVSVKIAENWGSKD
- Assay text: Fluorescence-based high-throughput DNA polymerase assay (molecular beacon), primary screen and dose-response
- Type: biochemical
- Condition info: DRC-2; read at 180'; concentration 2.5

Compound | % inhibition apPOL 180' 2.5 / %
CC(C)CC(C(=O)O)N1C(=O)C2C3C=CC(C2C1=O)C1C(=O)N(C(CC(C)C)C(=O)O)C(=O)C31 (stereo not drawn) [KU0193449] | -5
O=C(c1ccccc1)N1CCc2c(nc3cc(-c4ccccc4)[nH]n3c2=O)C1 [Molecule 30] | 0.84
COc1ccc(C2CC(c3ccc(Cl)cc3Cl)Nc3nc(N)nn32)cc1OC (stereo not drawn) [Molecule 43] | 18
